The measurements presented in this section are drawn from patent US20150376198A1.

# assayTarget: human Arginine Vasopressin Receptor 1a (AVPR1a) (Homo sapiens)
# Sequence (P37288 whole entry): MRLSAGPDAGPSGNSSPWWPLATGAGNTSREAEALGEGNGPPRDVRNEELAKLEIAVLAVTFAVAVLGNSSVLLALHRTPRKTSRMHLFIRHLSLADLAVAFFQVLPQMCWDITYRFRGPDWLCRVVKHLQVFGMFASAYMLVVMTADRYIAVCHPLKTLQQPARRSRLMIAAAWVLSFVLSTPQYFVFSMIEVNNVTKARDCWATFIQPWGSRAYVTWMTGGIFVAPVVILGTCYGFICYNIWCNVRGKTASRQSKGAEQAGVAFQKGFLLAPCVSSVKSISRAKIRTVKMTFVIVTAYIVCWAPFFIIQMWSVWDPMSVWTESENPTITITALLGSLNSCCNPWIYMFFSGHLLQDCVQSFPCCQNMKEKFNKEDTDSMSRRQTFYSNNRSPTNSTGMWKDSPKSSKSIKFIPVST
# assay: cell-based
# cond: read-out: V1a-R IC50
measurementLabel: log10 IC50 (log10 of the value in nM)
Please interpret these as log10 of IC50 where IC50 is in nM.

Challenge: Returns the measured log10 IC50 for the input compound. Input: N#Cc1ccc(N2CCC(C(=O)N3CCCCc4cc(Cl)ccc43)CC2)nc1 [Compound 112]
Response given: 3.09

Challenge: Consider the compound Cc1nc(N2CCC(C(=O)N(CC3CC3)c3ccc(Cl)cc3)CC2)c2ccccc2n1 [Compound 191] and give its measured log10 IC50.
Response given: 1.87

Continuing:
Challenge: # lookup: log10 IC50 of Cc1nc(N2CCC(C(=O)N3CCCCc4cc(Cl)ccc43)CC2)ncc1Cl [Compound 184]
Response given: 1.41

Challenge: # lookup: log10 IC50 of Cc1cnc(N2CCN(C(=O)N(CC3CC3)c3ccc(Cl)cc3)CC2)nc1 [Compound 156]
Response given: 1.23

Challenge: Please report the recorded log10 IC50 for Cc1ccnc(N2CCC(C(=O)N3CCCCc4cc(Cl)ccc43)CC2)n1 [Compound 180] .
Response given: 1.23

Challenge: Name the reported log10 IC50 value associated with the compound O=C(c1ccc(C(F)(F)F)cc1)N1CCC(C(=O)N2CCCCc3cc(Cl)ccc32)CC1 [Compound 87]
Response given: 3.27

Challenge: // returns reported log10 IC50 for input O=C(C1CCN(c2nc3ccc(Cl)cc3o2)CC1)N1CCCCc2cc(Cl)ccc21 [Compound 214]
Response given: 1.65

Challenge: What log10 IC50 value was documented for this compound, COc1ccnc(N2CCC(C(=O)N3CCCCc4cc(Cl)ccc43)CC2)n1 [Compound 175] ?
Response given: 1.04

Challenge: Bench note: what log10 IC50 did O=C(c1c[nH]c2ccccc12)N1CCC(C(=O)N2CCCCc3cc(Cl)ccc32)CC1 [Compound 120] show?
Response given: 2.40

Challenge: Fill in: log10 IC50 of O=C(c1ccc(Cl)cc1)N1CCC(C(=O)N2CCCCc3cc(Cl)ccc32)CC1 [Compound 86] is ___
Response given: 2.92

Challenge: Report log10 IC50 for O=C(C1CCN(c2ncccc2Cl)CC1)N(CC1CC1)c1ccc(Cl)cc1 [Compound 144] please.
Response given: 1.36

Challenge: Tell me the measured log10 IC50 of Cc1cc(N2CCC(C(=O)N3CCCCc4cc(Cl)ccc43)CC2)ncc1Cl [Compound 220] , please.
Response given: 0.85

Challenge: Can you look up the measured log10 IC50 of Cc1cc(C)nc(N2CCC(C(=O)N3CCCCc4cc(Cl)ccc43)CC2)n1 [Compound 165] for me?
Response given: 0.30

---

# assayTarget: human V1a receptor (Homo sapiens, UniProt P37288)
# Construct: expressed in transfected cells; host or cells: CHO cells (G418-selected hV1a cell line)
# Sequence (P37288 whole entry): as above
# assay: Vasopressin V1a receptor binding assay (3H-AVP competition, CHO cells)
measurementLabel: Ki

// worked examples, Ki included
Challenge: Look up Ki: `CCN(C(=O)N1CCN(c2ccccn2)CC1)c1ccc(OC)cc1`
Response given: 79 nM

Challenge: Query: Ki; subject: `CCN(C(=O)N1CCN(c2ncccc2C)CC1)c1ccc(OC)cc1`
Response given: 116 nM

Challenge: What Ki value was documented for this molecule, `CCN(C(=O)N1CCN(c2ncccc2Cl)CC1)c1ccc(OC)cc1` ?
Response given: 1160 nM

Challenge: # lookup: Ki of `CCN(C(=O)N1CCN(c2ncccc2C(F)(F)F)CC1)c1ccc(OC)cc1`
Response given: 113 nM

Challenge: Requested read-out: Ki. Entry: `CCN(C(=O)C1CCN(c2ncccc2C(F)(F)F)CC1)c1ccc(OC)cc1`
Response given: 1170 nM

Further cases:
Challenge: What value of Ki has been recorded for this entry: `COc1ccc(N(CC2CC2)C(=O)N2CCN(c3cc(Cl)ccc3C)CC2)cc1`
Response given: 5 nM

Challenge: What measured Ki goes with `COc1ccccc1N(CC1CC1)C(=O)N1CCN(c2ccccc2C)CC1` ?
Response given: 107 nM

Challenge: Look up Ki: `Cc1ccc(N(CC2CC2)C(=O)N2CCN(c3ccccc3C)CC2)cc1`
Response given: 3 nM

Challenge: Given the molecule COc1ccc(N(CC2CC2)C(=O)C2CCN(Cc3ccccc3Cl)C2)cc1 (stereo not drawn) , what is its reported Ki?
Response given: 71 nM

Challenge: // Ki lookup, key: `COCCN(C(=O)N1CCN(c2ccccc2C)CC1)c1ccc(OC)cc1`
Response given: 10 nM

Challenge: What does the record list as Ki for `COc1ccc(N(CC2CC2)C(=O)N2CCN(c3ccccc3C(F)(F)F)CC2)cc1` ?
Response given: 11 nM

Challenge: Could you share which Ki value was measured for `Cc1ccccc1N1CCN(C(=O)N(CC2CC2)c2ccc(Cl)cc2)CC1` ?
Response given: 1 nM
